Numbers sourced from PubChem BioAssay AID1963978.

Attribute: viability, T/C
Test system: 616215-338-R-J1-PDC spheroids with HUVEC/MSC, viability
method notes: Anticancer human tumor 616215-338-R-J1-PDC patient-derived colon adenocarcinoma cell line growth inhibition [PI3K]
condition parameters: second compound 0.316 µM; first compound 0.1 µM; stronger effect = lower value
Quick note: give the figure in %, leave out the unit.

Below: 4 compounds and their reported viability, T/C.
| compound | assay system | measure unit | test result |
| --- | --- | --- | --- |
| CC1(C)CCC(Nc2ncc(C(F)(F)F)c(-c3c[nH]c4c(P(C)(C)=O)c(C#N)ccc34)n2)CN1 (stereo not given) + COc1c(OCCCN2CCOCC2)ccc2c3n(c(=NC(=O)c4cnc(N)nc4)nc12)CCN3 | 616215-338-R-J1-PDC spheroids with HUVEC/MSC, viability | % | 23.8 |
| Cn1nccc1Nc1nccc(-c2ccn(C(CO)c3ccc(Cl)c(F)c3)c(=O)c2)n1 (stereo not given) + COc1c(OCCCN2CCOCC2)ccc2c3n(c(=NC(=O)c4cnc(N)nc4)nc12)CCN3 | 616215-338-R-J1-PDC spheroids with HUVEC/MSC, viability | % | 38.6 |
| CC(C)NCC(C(=O)N1CCN(c2ncnc3c2C(C)CC3O)CC1)c1ccc(Cl)cc1 (stereo not given) + COc1c(OCCCN2CCOCC2)ccc2c3n(c(=NC(=O)c4cnc(N)nc4)nc12)CCN3 | 616215-338-R-J1-PDC spheroids with HUVEC/MSC, viability | % | 37.1 |
| C#Cc1c(F)ccc2cc(O)cc(-c3ncc4c(N5CC6CCC(C5)N6)nc(OCC56CCCN5CC(F)C6)nc4c3F)c12 (stereo not given) + CC(Nc1ncnc2nc[nH]c12)c1cc2cccc(Cl)c2c(=O)n1-c1ccccc1 | 616215-338-R-J1-PDC spheroids with HUVEC/MSC, viability | % | 97.7 |

Then this compound:
Which viability, T/C is reported with 616215-338-R-J1-PDC spheroids with HUVEC/MSC, viability for this entry: Cn1ncc(Cl)c1-c1cc(C(=O)NC(CN)Cc2cccc(F)c2)sc1Cl (stereo not given) + Cc1nc(NC(=O)N2CCCC2C(N)=O)sc1-c1ccnc(C(C)(C)C(F)(F)F)c1 ?
96

###

Test system: 616215-338-R-J1-PDC spheroids with HUVEC/MSC, viability
method notes: Anticancer human tumor 616215-338-R-J1-PDC cell line growth inhibition [PI3K]; active = viability on the fitted dose curve at most 10% of control; inactive = the rest;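 note: spheroids exposed to agents for seven days before the viability read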
condition parameters: second compound 10 µM; first compound 10 µM
// one of active, inactive, no free text

// below: answered compounds
| compound | label value |
| --- | --- |
| Cn1ncc(Cl)c1-c1cc(C(=O)NC(CN)Cc2cccc(F)c2)sc1Cl (stereo not given) + CC(Nc1ncnc2nc[nH]c12)c1cc2cccc(Cl)c2c(=O)n1-c1ccccc1 | inactive |
| CC(C)NCC(C(=O)N1CCN(c2ncnc3c2C(C)CC3O)CC1)c1ccc(Cl)cc1 (stereo not given) + Cc1nc(NC(=O)N2CCCC2C(N)=O)sc1-c1ccnc(C(C)(C)C(F)(F)F)c1 | inactive |
| C#Cc1c(F)ccc2cc(O)cc(-c3ncc4c(N5CC6CCC(C5)N6)nc(OCC56CCCN5CC(F)C6)nc4c3F)c12 (stereo not given) + CC(Nc1ncnc2nc[nH]c12)c1cc2cccc(Cl)c2c(=O)n1-c1ccccc1 | inactive |
| Cn1nccc1Nc1nccc(-c2ccn(C(CO)c3ccc(Cl)c(F)c3)c(=O)c2)n1 (stereo not given) + Cc1nc(NC(=O)N2CCCC2C(N)=O)sc1-c1ccnc(C(C)(C)C(F)(F)F)c1 | active |

Status in this test for CCCS(=O)(=O)Nc1ccc(F)c(C(=O)c2c[nH]c3ncc(-c4ccc(Cl)cc4)cc23)c1F + CC(Nc1ncnc2nc[nH]c12)c1cc2cccc(Cl)c2c(=O)n1-c1ccccc1 ?
active
